B1: Syntaxin-binding protein 4, residues 493 to 538; numbered along this chain, Q6ZWJ1 (parent)
chain: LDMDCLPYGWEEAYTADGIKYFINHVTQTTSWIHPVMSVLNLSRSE

variants of: B1; experiment: abundance fitness (aPCA) (normalised: wild type 0, dead -1); higher = more abundant; growth selection in yeast, the domain comes from the species named; conditions: Homo sapiens
Classification field: enter rule met for abundance fitness values not below -0.7, rule not met for values below it.

Please review the entries below; each comes with its answer.
• N41Q = rule met
• T30N = rule not met
• Y21D = rule not met
• Y14P = rule not met
• W32G = rule met
• P35I = rule not met
• V36R = rule met
• G18K = rule met

Alright, here's another variant for you.
Exam item: Is it the case that `H34M` has abundance fitness reaching or exceeding -0.7?
Marked response: rule not met

The measurements presented in this section are drawn from the Human Domainome abundance scans (Beltran et al. 2025).
